The measured values listed here are drawn from ChEMBL document CHEMBL4390678.

- Target Under Test: P2Y purinoceptor 14 (Homo sapiens, UniProt Q15391)
- Sequence (Q15391 whole entry): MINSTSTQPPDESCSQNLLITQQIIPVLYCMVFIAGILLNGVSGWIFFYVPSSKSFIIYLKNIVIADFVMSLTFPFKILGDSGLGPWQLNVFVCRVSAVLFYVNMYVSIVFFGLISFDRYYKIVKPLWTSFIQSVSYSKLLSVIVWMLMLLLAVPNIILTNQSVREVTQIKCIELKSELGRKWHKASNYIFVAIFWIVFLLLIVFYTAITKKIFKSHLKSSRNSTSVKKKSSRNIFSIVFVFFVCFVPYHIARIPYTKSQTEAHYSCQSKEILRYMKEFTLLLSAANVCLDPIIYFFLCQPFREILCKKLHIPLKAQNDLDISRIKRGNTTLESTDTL
- Protocol Details: Displacement of 6-Amino-9-(2-carboxy-4-((6-(4-(4-(4-(4-(3-carboxy-6-(4-(trifluoromethyl)phenyl)-naphthalen-1-yl)phenyl)piperidin-1-yl)butyl)-1H-1,2,3-triazol-1-yl)hexyl)carbamoyl)-phenyl)-3-iminio-5-sulfo-3H-xanthene-4-sulfonate from recombinant human P2Y14 receptor expressed in CHO cells preincubated for 30 mins followed by tracer addition and measured after 30 mins by flow cytometry
Measure: IC50 (µM)

                                chem_smiles                         target_under_test  measure  value_prefix  experimental_value
0  O=C(Nc1ccn([C@@H]2O[C@H](COP(=O)(O)CP(=O)(O)O)[C@@H](O)[C@H]2O)c(=O)n1)c1ccccc1  P2Y purinoceptor 14 (Homo sapiens, UniProt Q15391)     IC50             =                6.66
1  Cn1c(=NOCc2ccccc2)ccn([C@@H]2O[C@H](COP(=O)(O)CP(=O)(O)O)[C@@H](O)[C@H]2O)c1=O  P2Y purinoceptor 14 (Homo sapiens, UniProt Q15391)     IC50             >                   3
2  O=c1[nH]c(=O)n([C@@H]2O[C@H](COP(=O)(O)CP(=O)(O)O)[C@@H](O)[C@H]2O)cc1F  P2Y purinoceptor 14 (Homo sapiens, UniProt Q15391)     IC50             =               0.362

---

- Target Under Test: 5'-nucleotidase (Rattus norvegicus) (UniProt P21588)
- Sequence (whole entry): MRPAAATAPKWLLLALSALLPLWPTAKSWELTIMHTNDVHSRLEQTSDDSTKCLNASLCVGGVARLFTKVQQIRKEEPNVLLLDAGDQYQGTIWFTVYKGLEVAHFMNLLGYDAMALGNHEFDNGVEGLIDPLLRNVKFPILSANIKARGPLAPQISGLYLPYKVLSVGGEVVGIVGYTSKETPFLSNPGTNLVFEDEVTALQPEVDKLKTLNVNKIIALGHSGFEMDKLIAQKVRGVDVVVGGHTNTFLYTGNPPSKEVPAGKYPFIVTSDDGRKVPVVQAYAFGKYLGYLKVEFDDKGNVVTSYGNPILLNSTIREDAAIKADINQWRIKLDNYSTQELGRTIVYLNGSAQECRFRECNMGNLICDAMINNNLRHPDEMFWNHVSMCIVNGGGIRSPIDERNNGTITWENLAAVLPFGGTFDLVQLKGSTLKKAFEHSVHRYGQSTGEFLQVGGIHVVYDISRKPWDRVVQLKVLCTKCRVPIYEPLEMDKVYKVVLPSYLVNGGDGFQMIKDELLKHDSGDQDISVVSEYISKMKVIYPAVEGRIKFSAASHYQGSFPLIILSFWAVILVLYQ
- Protocol Details: Inhibition of recombinant rat C-terminal His-tagged soluble form of CD73 expressed in baculovirus infected Sf9 insect cells at 1 uM using [2,8-3H]AMP as substrate measured after 25 mins by scintillation counting method relative to control
Measure: inhibition (%)

                                chem_smiles  value_prefix  experimental_value
0  Nc1nccc2c1ncn2[C@@H]1O[C@H](COP(=O)(O)CP(=O)(O)O)[C@@H](O)[C@H]1O             =                  36
1  O=c1cnn([C@@H]2O[C@H](COP(=O)(O)CP(=O)(O)O)[C@@H](O)[C@H]2O)c(=O)[nH]1             =                  21
2  Cc1cn([C@@H]2O[C@H](COP(=O)(O)CP(=O)(O)O)[C@@H](O)[C@H]2O)c(=O)nc1N             >                  50
3  Nc1ccn([C@H]2C[C@H](O)[C@@H](COP(=O)(O)CP(=O)(O)O)O2)c(=O)n1             =                  18
4  Nc1ccnc2c1ncn2[C@@H]1O[C@H](COP(=O)(O)CP(=O)(O)O)[C@@H](O)[C@H]1O             =                  36
5  O=c1[nH]c(=O)n([C@@H]2O[C@H](COP(=O)(O)CP(=O)(O)O)[C@@H](O)[C@H]2O)cc1Cl             >                  50
6  Nc1ncnc2c1ncn2[C@@H]1O[C@H](COP(=O)(O)CP(=O)(O)O)[C@@H](O)[C@H]1O             >                  50
7  CO[C@@H]1[C@H](O)[C@@H](COP(=O)(O)CP(=O)(O)O)O[C@H]1n1cc(C)c(=O)[nH]c1=O             =                   3
